target: Adenosine receptor A1 (Homo sapiens); assay: Displacement of [3H]DPCPX from recombinant human A1 adenosine receptor expressed in CHO cells at 10 uM after 120 mins by scintillation counting; assay type: cell-based
parameter: inhibition (%)

Use the examples below as a reference point.
Prompt line: Consider the compound Nc1scc(CN2CCN(c3c(F)cc(F)cc3F)CC2)c1C(=O)c1ccc(Cl)cc1 and give its measured inhibition.
Response line: 0

Prompt line: Requested read-out: inhibition. Entry: Nc1scc(CN2CCN(c3cc(Cl)cc(Cl)c3)CC2)c1C(=O)c1ccc(Cl)cc1
Response line: 1

P. Nc1scc(CN2CCN(C(=O)c3ccc(Cl)cc3)CC2)c1C(=O)c1ccc(Cl)cc1
Q. Nc1scc(CN2CCN(c3cc(F)cc(F)c3)CC2)c1C(=O)c1ccc(Cl)cc1
Prompt line: Looking only at measured inhibition, which entry is lower, P or Q ? Field: selected label. Fill in the label of the entry you choose.
Response line: Q
